Recorded values, source patent US10336762B2.

Tested on: TNFα
Assay: cells
Type: cell-based, human
Settings: Homo sapiens, Monocyte, LPS-stimulated human monocytes, TNFα content; read-out: EC50 TNF
metric.name: pEC50
Please note pEC50 is a logarithmic value: minus log10 of concentration in mol/L. Answer with that number alone.

The value of pEC50 recorded for COC(=O)N1CCC(n2cc(Nc3cc(-c4ccc5cc(C#N)cnn45)ncc3C(=O)NC[C@@H](F)C(C)(C)O)cn2)CC1 when tested on TNFα reads 6.78

Summary: CN1CCC(Nc2cc(-c3ccc4cc(C#N)cnn34)ncc2C(=O)NC[C@@H](F)C(C)(C)O)CC1=O (stereo partly shown) , TNFα, pEC50 = 6.82

Test item CN1CCN(C(=O)NC[C@H]2C[C@H](Nc3cc(-c4ccc5cc(C#N)cnn45)ncc3C(=O)NC[C@@H](F)C(C)(C)O)C2)CC1 ; TNFα; reported pEC50 was 6.22

Field pEC50 (TNFα), entry CC(C)(O)[C@H](F)CNC(=O)c1cnc(-c2ccc3cc(C#N)cnn23)cc1NC1CC1 : 7.55

I looked up CCC(=O)N[C@H]1CC[C@H](Nc2cc(-c3ccc4cc(C#N)cnn34)ncc2C(=O)NC[C@@H](F)C(C)(C)O)CC1 and its pEC50 for TNFα was 6.89

Sample CC(C)(O)[C@H](F)CNC(=O)c1cnc(-c2ccc3cc(C#N)cnn23)cc1NC12CCC(c3cnco3)(CC1)OC2 , system: TNFα. Its pEC50 is 8.70

Entry CC(C)(O)[C@H](F)CNC(=O)c1cnc(-c2ccc3cc(C#N)cnn23)cc1NC12CCC(C(=O)N3CCN(C4COC4)CC3)(CC1)CC2 , TNFα data, pEC50 value: 6.59
